System: THP-1
Test: Growth inhibition assay for NHL lines
Assay type: cell-based
Conditions: THP-1, Leukemia M-AML, 96 hours, n ≧ 3
ASSAY METRIC: IC50 (µM)

1. CO[C@H]1CC[C@H](N2C(=O)CNc3ncc(-c4ccc(C(C)(C)O)nc4)nc32)CC1: 0.57

----------
System: KMS34
Assay: Cell proliferation and viability assay for MM lines
Format: cell-based
Details: KMS34, 5 days, 7AAD FACS; read-out: IC50, Viability
Protocol: Cell Proliferation and Viability Assay for MM Lines. Prior to use, cells were washed and maintained in medium for 5 days. Cells were seeded out at a density of 0.3×10^6 cells/mL in a 12-well plate and treated with Compound 1 or Compound 2 for 5 days. 7AAD detection fluorescence-activated cell sorting (FACS) flow cytometry was used in the analysis.
pIC50: −log10 of the molar value.
ASSAY METRIC: pIC50

1) CO[C@H]1CC[C@H](N2C(=O)CNc3ncc(-c4ccc(C(C)(C)O)nc4)nc32)CC1: 6.38

----------
Test system: NCI-H1792
Experiment: Cell viability assay for NSCLC lines
Format: cell-based, human
Details: NCI-H1792, 3 days
ASSAY METRIC: IC50 (nM)

1) CO[C@H]1CC[C@H](N2C(=O)CNc3ncc(-c4ccc(C(C)(C)O)nc4)nc32)CC1 [Compound 1]: 540

----------
System: KMS34
Assay: Cell proliferation and viability assay for MM lines
Assay type: cell-based
Settings: KMS-34, 120 h; KMS34, 5 days, 7AAD FACS; read-out: IC50, Proliferation
ASSAY METRIC: IC50 (nM)

1) CCN1C(=O)CNc2ncc(-c3ccc(-c4nc[nH]n4)nc3C)nc21: 70

----------
Tested on: NCI-H2009
Test: Cell viability assay for NSCLC lines
Format: cell-based, human
Conditions: NCI-H2009, 3 days
pIC50: −log10 of the molar value.
ASSAY METRIC: pIC50

1) CO[C@H]1CC[C@H](N2C(=O)CNc3ncc(-c4ccc(C(C)(C)O)nc4)nc32)CC1: 4.58

----------
System: NCI-H596
Experiment: Cell viability assay for NSCLC lines
Format: cell-based, human
Details: NCI-H596, 3 days
ASSAY METRIC: IC50 (nM)

1. CO[C@H]1CC[C@H](N2C(=O)CNc3ncc(-c4ccc(C(C)(C)O)nc4)nc32)CC1: 2200

----------
Tested on: SNU-423
Assay: Growth inhibition assay for HCC lines
Type: cell-based
Details: SNU-423, 96 hours, RPMI 1640 + 10% FBS
pIC50: −log10 of the molar value.
ASSAY METRIC: pIC50

1) CO[C@H]1CC[C@H](N2C(=O)CNc3ncc(-c4ccc(C(C)(C)O)nc4)nc32)CC1 [Compound 1]: 6.32

----------
System: Pfeiffer
Test: Growth inhibition assay for NHL lines
Type: cell-based
Conditions: NHL DLBCL, 96 hours, n ≧ 3
ASSAY METRIC: IC50 (nM)

1) CO[C@H]1CC[C@H](N2C(=O)CNc3ncc(-c4ccc(C(C)(C)O)nc4)nc32)CC1: 190

----------
Test system: WSU-DLCL2
Experiment: Growth inhibition assay for NHL lines
Format: cell-based
Conditions: WSU-DLCL2, NHL DLBCL, 96 hours, n ≧ 3
ASSAY METRIC: IC50 (nM)

1) CO[C@H]1CC[C@H](N2C(=O)CNc3ncc(-c4ccc(C(C)(C)O)nc4)nc32)CC1: 90

Values compiled from patent US9493466B2.
